# key: entry, value: φ (%)
# assay details: Quantum yield measurements versus Acridine Yellow in EtOH
# Assay type: physicochemical
# experimental parameters: MKCA compound library; quantum yield
measured endpoint: φ (%)

[[record]]
compound = "CN(Cc1ccccc1)C1=[N+]2C(=C(c3ccc(NC(=O)CCl)cc3)c3ccc(-n4cc(CO)nn4)n3[B-]2(F)F)C=C1"
quantity_unit = "%"
number = 2.58

[[record]]
compound = "CCCc1cn(-c2ccc3n2[B-](F)(F)[N+]2=C(NCc4ccccc4OCC)C=CC2=C3c2ccc(NC(=O)CCl)cc2)nn1"
quantity_unit = "%"
number = 38.23

[[record]]
compound = "CC(C)Cc1cn(-c2ccc3n2[B-](F)(F)[N+]2=C(N4CC(C)OC(C)C4)C=CC2=C3c2ccc(NC(=O)CCl)cc2)nn1 (stereo not shown)"
quantity_unit = "%"
number = 2.19

[[record]]
compound = "CCCc1cn(-c2ccc3n2[B-](F)(F)[N+]2=C(NCc4ccccc4C)C=CC2=C3c2ccc(NC(=O)CCl)cc2)nn1"
quantity_unit = "%"
number = 28.94

[[record]]
compound = "CCOc1ccccc1CNC1=[N+]2C(=C(c3ccc(NC(=O)CCl)cc3)c3ccc(-n4cc(C5CC5)nn4)n3[B-]2(F)F)C=C1"
quantity_unit = "%"
number = 36.22

[[record]]
compound = "O=C(CCl)Nc1ccc(C2=C3C=CC(N4CCc5ccccc5C4)=[N+]3[B-](F)(F)n3c2ccc3-n2cc(CC3CCCCC3)nn2)cc1"
quantity_unit = "%"
number = 3.05

[[record]]
compound = "COc1ccc(OC)c(CNC2=[N+]3C(=C(c4ccc(NC(=O)CCl)cc4)c4ccc(-n5cc(C6CC6)nn5)n4[B-]3(F)F)C=C2)c1"
quantity_unit = "%"
number = 19.35

[[record]]
compound = "CN(Cc1ccccc1)C1=[N+]2C(=C(c3ccc(NC(=O)CCl)cc3)c3ccc(-n4cc(C5CC5)nn4)n3[B-]2(F)F)C=C1"
quantity_unit = "%"
number = 7.26

[[record]]
compound = "Cc1ccccc1CNC1=[N+]2C(=C(c3ccc(NC(=O)CCl)cc3)c3ccc(-n4cc(CC(C)C)nn4)n3[B-]2(F)F)C=C1"
quantity_unit = "%"
number = 29.92

[[record]]
compound = "Cc1ccccc1CNC1=[N+]2C(=C(c3ccc(NC(=O)CCl)cc3)c3ccc(-n4cc(CCc5ccccc5)nn4)n3[B-]2(F)F)C=C1"
quantity_unit = "%"
number = 33.37

[[record]]
compound = "CN(Cc1ccccc1)C1=[N+]2C(=C(c3ccc(NC(=O)CCl)cc3)c3ccc(-n4cc(CC5CCCCC5)nn4)n3[B-]2(F)F)C=C1"
quantity_unit = "%"
number = 6.17

[[record]]
compound = "CCCC(C)c1cn(-c2ccc3n2[B-](F)(F)[N+]2=C(NCc4ccccc4OCC)C=CC2=C3c2ccc(NC(=O)CCl)cc2)nn1 (stereo not shown)"
quantity_unit = "%"
number = 23.61

[[record]]
compound = "CCOc1ccccc1CNC1=[N+]2C(=C(c3ccc(NC(=O)CCl)cc3)c3ccc(-n4cc(CN(C)Cc5ccccc5)nn4)n3[B-]2(F)F)C=C1"
quantity_unit = "%"
number = 24.66


----------
# assay details: Absorbance and fluorescence emission spectra (SpectraMax M2)
# Format: physicochemical
# experimental parameters: MKCA compound library; fluorescence emission maximum
# Experimental: BDC-8 (Blue): absorbance λmax=473 nm, emission λmax=585 nm; MK101-8 (Green): absorbance λmax=474 nm, emission λmax=563 nm; MKHA374-48 (Yellow): absorbance λmax=468 nm, λem=557 nm. The corresponding spectra of a reported BODIPY (BD-27; Red) are also included for comparison: absorbance λmax=551 nm, emission λmax=568 nm. […] ^1H-NMR, ^19F-NMR and ^13C-NMR spectra were recorded on Bruker ACF300 (300 MHz), DPX300 (300 MHz) and AMX500 (500 MHz) spectrometers. […]
measured endpoint: λmax Emission (nm)

[[record]]
molecule = "CCCc1cn(-c2ccc3n2[B-](F)(F)[N+]2=C(N4CCc5ccccc5C4)C=CC2=C3c2ccc(NC(=O)CCl)cc2)nn1 [MKCA66-48]"
quantity_unit = "nm"
number = 584

[[record]]
molecule = "COc1ccc(OC)c(CNC2=[N+]3C(=C(c4ccc(NC(=O)CCl)cc4)c4ccc(-n5cc(C6CC6)nn5)n4[B-]3(F)F)C=C2)c1 [MKCA181-4]"
quantity_unit = "nm"
number = 566

[[record]]
molecule = "CCCCCC(O)c1cn(-c2ccc3n2[B-](F)(F)[N+]2=C(N(C)Cc4ccccc4)C=CC2=C3c2ccc(NC(=O)CCl)cc2)nn1 (stereo not shown) [MKCA195-69]"
quantity_unit = "nm"
number = 582

[[record]]
molecule = "CN(Cc1ccccc1)C1=[N+]2C(=C(c3ccc(NC(=O)CCl)cc3)c3ccc(-n4cc(CO)nn4)n3[B-]2(F)F)C=C1 [MKCA195-70]"
quantity_unit = "nm"
number = 581

[[record]]
molecule = "O=C(CCl)Nc1ccc(C2=C3C=CC(NCc4cc(F)cc(F)c4)=[N+]3[B-](F)(F)n3c2ccc3-n2cc(CC3CCCCC3)nn2)cc1 [MKCA412-8]"
quantity_unit = "nm"
number = 564

[[record]]
molecule = "O=C(CCl)Nc1ccc(C2=C3C=CC(N4CCc5ccccc5C4)=[N+]3[B-](F)(F)n3c2ccc3-n2cc(C3CC3)nn2)cc1 [MKCA66-4]"
quantity_unit = "nm"
number = 587

[[record]]
molecule = "CCOc1ccccc1CNC1=[N+]2C(=C(c3ccc(NC(=O)CCl)cc3)c3ccc(-n4cc(C5CC5)nn4)n3[B-]2(F)F)C=C1 [MKCA103-4]"
quantity_unit = "nm"
number = 564

[[record]]
molecule = "CCOc1ccccc1CNC1=[N+]2C(=C(c3ccc(NC(=O)CCl)cc3)c3ccc(-n4cc(CO)nn4)n3[B-]2(F)F)C=C1 [MKCA103-70]"
quantity_unit = "nm"
number = 563

[[record]]
molecule = "CN(Cc1ccccc1)C1=[N+]2C(=C(c3ccc(NC(=O)CCl)cc3)c3ccc(-n4cc(CCc5ccccc5)nn4)n3[B-]2(F)F)C=C1 [MKCA195-19]"
quantity_unit = "nm"
number = 586

[[record]]
molecule = "CCCCCC(O)c1cn(-c2ccc3n2[B-](F)(F)[N+]2=C(NCc4ccccc4OCC)C=CC2=C3c2ccc(NC(=O)CCl)cc2)nn1 (stereo not shown) [MKCA103-69]"
quantity_unit = "nm"
number = 562

[[record]]
molecule = "CC1CN(C2=[N+]3C(=C(c4ccc(NC(=O)CCl)cc4)c4ccc(-n5cc(CO)nn5)n4[B-]3(F)F)C=C2)CC(C)O1 (stereo not shown) [MKCA20-70]"
quantity_unit = "nm"
number = 587

[[record]]
molecule = "Cc1ccccc1CNC1=[N+]2C(=C(c3ccc(NC(=O)CCl)cc3)c3ccc(-n4cc(C5CC5)nn4)n3[B-]2(F)F)C=C1 [MKCA101-4]"
quantity_unit = "nm"
number = 565

[[record]]
molecule = "Cc1ccccc1CNC1=[N+]2C(=C(c3ccc(NC(=O)CCl)cc3)c3ccc(-n4cc(CN(C)Cc5ccccc5)nn4)n3[B-]2(F)F)C=C1 [MKCA101-18]"
quantity_unit = "nm"
number = 562

